Data provenance: patent US8765803B1

biological target: Rab7 GTPase (UniProt P18067); construct: fused on or other part: GST tag, used to hold the protein on glutathione beads; experiment: Multiplex bead-based flow cytometry dose-response, BODIPY-FL-GTP binding to GST-tagged GTPase; settings: Assay format Mg (1 mM Mg2+ buffer, 1 nM BODIPY-FL-GTP); mean of n replicates
Labelling: EC50 reported below 200 nM becomes Yes; at or above becomes No.

[
  {
    "compound": "CC1(C)Cc2c(sc(NC(=S)NC(=O)c3cccc(Br)c3)c2C(=O)O)CO1",
    "class-label": "No"
  },
  {
    "compound": "CC1(C)CCc2sc(NC(=S)NC(=O)c3ccccc3)c(C(=O)O)c2C1",
    "class-label": "Yes"
  },
  {
    "compound": "CC1(C)Cc2c(sc(NC(=S)NC(=O)c3ccccc3F)c2C(=O)O)CO1",
    "class-label": "Yes"
  },
  {
    "compound": "Cc1cccc(C(=O)NC(=S)Nc2sc3c(c2C(=O)O)CC(C)(C)OC3)c1",
    "class-label": "No"
  },
  {
    "compound": "Cc1ccc(C(=O)NC(=S)Nc2sc3c(c2C(=O)O)CC(C)(C)OC3)cc1",
    "class-label": "Yes"
  },
  {
    "compound": "CCC1(C)Cc2c(sc(NC(=S)NC(=O)c3ccccc3)c2C(=O)O)CO1 (centres unmarked)",
    "class-label": "Yes"
  },
  {
    "compound": "CC(C)(C)C1Cc2c(sc(NC(=S)NC(=O)c3ccccc3)c2C(=O)O)CO1 (centres unmarked)",
    "class-label": "No"
  },
  {
    "compound": "CC1(C)Cc2c(sc(NC(=S)NC(=O)C3CCCCC3)c2C(=O)O)CO1",
    "class-label": "No"
  }
]

====

Cell viability of U937 cells after treatment values, listed per item
System: U937 cells
Assay: Cytotoxicity of compounds, cell density and viability
Format: cell-based
Conditions: 24 h, 20 μM
Method: U937 cells were grown to a density of 0.4×10^6 cells/mL Compounds were added to a final concentration of 20 μM or otherwise indicated. As a control, cells were treated with DMSO of the same volume. After 24 h incubation, the density and viability of the cells were measured with Countess Cell Counter according to the protocols from the manufacturer.
readout-type: Cell viability of U937 cells after treatment (%)

[
  {
    "smiles-representation": "COc1cccc(C(=O)NC(=S)Nc2sc3c(c2C(=O)O)CC(C)(C)OC3)c1",
    "result": 94
  },
  {
    "smiles-representation": "CC1(C)CCc2sc(NC(=S)NC(=O)c3ccccc3)c(C(=O)O)c2C1",
    "result": 91
  },
  {
    "smiles-representation": "CC1(C)Cc2c(sc(NC(=S)NC(=O)c3ccc(Br)cc3)c2C(=O)O)CO1",
    "result": 93
  },
  {
    "smiles-representation": "CC1(C)Cc2c(sc(NC(=S)NC(=O)c3cccc(F)c3)c2C(=O)O)CO1",
    "result": 92
  },
  {
    "smiles-representation": "COc1ccc(C(=O)NC(=S)Nc2sc3c(c2C(=O)O)CC(C)(C)OC3)cc1",
    "result": 96
  },
  {
    "smiles-representation": "CC1(C)Cc2c(sc(NC(=S)NC(=O)c3ccccc3Br)c2C(=O)O)CO1",
    "result": 94
  },
  {
    "smiles-representation": "CC1(C)Cc2c(sc(NC(=S)NC(=O)c3ccc(F)cc3)c2C(=O)O)CO1",
    "result": 94
  },
  {
    "smiles-representation": "CC1(C)Cc2c(sc(NC(=S)NC(=O)c3ccccc3F)c2C(=O)O)CO1",
    "result": 96
  },
  {
    "smiles-representation": "CC1(C)Cc2c(sc(NC(=S)NC(=O)c3ccccc3)c2C(=O)O)CO1",
    "result": 94
  }
]
